Property: TGI; scope: individual molecules
Test system: MDA-MB-468 breast
PROTOCOL DESCRIPTION: NCI tumour cell line growth inhibition, 48 h
Please respond with the number in µM and leave the unit unwritten.

C[C@]12CC[C@@H]3c4ccc(Oc5nc(N6CC6)nc(N6CC6)n5)cc4CC[C@H]3[C@@H]1CCC2=O : 12.6

GET /value?item= COc1cc(Cn2c(-c3ccccc3)cc3c2-c2oncc2CC3)cc(OC)c1OC &field=TGI returns 2.21

Looking up CC12CCCC(CC(=O)c3[nH]c4ccccc4c31)C2 (configuration not stated) , I see its TGI listed as 4.16

Form field TGI, entry CC(=O)Nc1nc(-c2ccc(N3CCN(C)CC3)c(NS(=O)(=O)c3cccc4c(N(C)C)cccc34)c2)cs1 : 22.3

What the record says about CN(C)CCNc1ccc2ncc(C#Cc3cncc(C(=O)Nc4ccc(CN5CCN(C)CC5)c(C(F)(F)F)c4)c3)n2n1 : TGI is 1.41

Note to self: TGI recorded for O=C(C[C@@H](C(=O)NCc1cccc(C(F)(F)F)c1)N1C(=O)[C@@H](N2C(=O)OC[C@@H]2c2ccccc2)[C@H]1/C=C/c1ccccc1)NC1CCN(Cc2ccccc2)CC1 was 18.4

---

Tested on: MDA-MB-468 breast
PROTOCOL DESCRIPTION: NCI tumour cell line growth inhibition, 48 h
MEASUREMENT NAME: TGI

COc1ccc(S(=O)(=O)N(Cc2ccc3c(n2)C=CC(C)(C)O3)C2CCC2)cc1OC : < 0.01 µM

Reported TGI for Cn1cc(C2=C(c3cn(CCCN=C(N)N)c4ccccc34)C(=O)NC2=O)c2ccccc21 was > 25 µM

TGI recorded for this compound, Nc1nccc(-c2c(-c3ccc(F)cc3)ncn2CCCN2CCOCC2)n1 , is > 25 µM

// recorded TGI for CN1C(=O)N(c2ccccc2)C2N=C(N/N=C/c3ccccc3)SC21 (stereo unspecified) : > 100 µM

Record summary for Cc1cc(C)cc(Nc2cc(C)nc3nc(C(F)(F)F)nn23)c1 : reported TGI = > 100 µM

Memo: COc1ccc(-c2cc3c(nn2)-c2ccccc2C3=O)cc1 , reported TGI: > 100 µM

Data provenance is PubChem BioAssay (NCI).
